All values here come from the Human Domainome abundance scans (Beltran et al. 2025).

B1: Ankyrin-2, residues 3571 to 3650; numbered along this chain, Q01484 (parent)
chain: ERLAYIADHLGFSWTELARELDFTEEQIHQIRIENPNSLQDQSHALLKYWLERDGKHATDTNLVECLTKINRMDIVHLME

Variants of: B1
Assay: abundance fitness (aPCA) (normalised: wild type 0, dead -1); higher = more abundant; growth selection in yeast, the domain comes from the species named
Settings: Homo sapiens
Entry flag: true if abundance fitness reaches -0.07; false if it does not.

Example entries begin here.
CHANGES: Q27N
CLASS_NAME: true
--
CHANGES: R32Q
CLASS_NAME: true
--
CHANGES: H29Q
CLASS_NAME: true
--
CHANGES: W14P
CLASS_NAME: false
--
CHANGES: T15G
CLASS_NAME: true
--
CHANGES: L47H
CLASS_NAME: false
--
CHANGES: W50T
CLASS_NAME: true
--
CHANGES: T15Y
CLASS_NAME: false

Please check the record `R32W` and state if its abundance fitness is at or above -0.07.
false

// inclusive: abundance fitness at least -0.07? input: `L10G`
false

Determine whether this variant has abundance fitness no lower than -0.07: `L21N`
false

Threshold query (abundance fitness >= -0.07) on `I31H`
false

Kindly determine if abundance fitness recorded for `Q30H` is above or exactly -0.07.
true

Confirm if abundance fitness reported for the variant `E25Q` is -0.07 or above.
true

Form field: abundance fitness at least -0.07? Entry: `I31M`
false

Hi team, for `A18V` , is the recorded abundance fitness at or above -0.07?
false

Hi, just wondering whether `S38L` shows abundance fitness of -0.07 or higher.
false

Does the variant `F23E` have recorded abundance fitness that is -0.07 or more?
false
